Known MTT (% of ctl) of a selection of compounds
- Test system: primary cortico-hippocampal neuron cultures
- procedure-summary: MTT in primary screening
- measurement-context: primary screening; table sorted by Aβ1-42
Where a name gives a salt, the structure may show the parent alone.

O=[N+]([O-])O[C@H]1CO[C@H]2[C@@H]1OC[C@H]2O[N+](=O)[O-] [Isosorbide Dinitrate] ... 100.8 % of ctl
NS(=O)(=O)c1cc2c(cc1Cl)NC(C(Cl)Cl)NS2(=O)=O (stereo not shown) [Trichlormethiazide] ... 105.5 % of ctl
CCOC(=O)[C@H](CCc1ccccc1)N[C@@H](C)C(=O)N1Cc2ccccc2C[C@H]1C(=O)O [Quinapril Hydrochloride] ... 102.4 % of ctl

API: value(readout= MTT (% of ctl), system= primary cortico-hippocampal neuron cultures, query= CC(C)OC(=O)C(C)(C)Oc1ccc(C(=O)c2ccc(Cl)cc2)cc1 [Fenofibrate] )
97.5 % of ctl

Sourced from patent US20100029654A1
